All figures here come from ChEMBL document CHEMBL1914423.

Tested on: NCI-H322M
Protocol Summary: Anticancer activity against human NCI-H322M cells after 48 hrs by SRB assay
Assay type: functional

Chemical String: O=C(NCCNc1nccc(-c2c(-c3cccc(O)c3)nc3sccn23)n1)Nc1cccc(C(F)(F)F)c1
Bound Operator: =
TGI [µM]: 26

Chemical String: O=C(NCCNc1nccc(-c2c(-c3cccc(O)c3)nc3sccn23)n1)c1ccccc1O
Bound Operator: =
TGI [µM]: 18.5

Chemical String: COc1cccc(-c2nc3sccn3c2-c2ccnc(NCCNC(=O)Nc3cccc(C(F)(F)F)c3)n2)c1
Bound Operator: >
TGI [µM]: 100

Chemical String: O=C(NCCNc1nccc(-c2c(-c3cccc(O)c3)nc3sccn23)n1)c1ccccc1
Bound Operator: >
TGI [µM]: 100

* * *

Listed here: items and their measured TGI.
System: SF-295
Protocol Summary: Anticancer activity against human SF295 cells after 48 hrs by SRB assay
Assay type: functional
Experimental Conditions: SF-295, 48 h
Value Type: TGI (µM)

Chemical String: O=C(NCCNc1nccc(-c2c(-c3cccc(O)c3)nc3sccn23)n1)Nc1cccc(C(F)(F)F)c1
Units Label: µM
Value: 29.7
--
Chemical String: O=C(NCCNc1nccc(-c2c(-c3cccc(O)c3)nc3sccn23)n1)c1ccccc1
Units Label: µM
Value: 38
--
Chemical String: O=C(NCCNc1nccc(-c2c(-c3cccc(O)c3)nc3sccn23)n1)c1ccccc1O
Units Label: µM
Value: 27.2
--
Chemical String: COc1cccc(-c2nc3sccn3c2-c2ccnc(NCCNC(=O)Nc3cccc(C(F)(F)F)c3)n2)c1
Units Label: µM
Value: 14.9

* * *

System: KM12
Protocol Summary: Anticancer activity against human KM12 cells assessed as cell growth at 10^-5 M after 48 hrs by SRB assay
Type: functional
Experimental Conditions: KM12, 48 h, read-out: Activity
growth at 10 µM: recorded values
Value Type: growth at 10 µM (%)

Chemical String: COc1cccc(-c2nc3sccn3c2-c2ccnc(NCCNC(=O)c3cc(N4CCOCC4)cc(C(F)(F)F)c3)n2)c1
Value: 83.2

Chemical String: COc1cccc(-c2nc3sccn3c2-c2ccnc(NCCNC(=O)Nc3cccc(C(F)(F)F)c3)n2)c1
Value: 33.5

Chemical String: COc1cccc(-c2nc3sccn3c2-c2ccnc(NCCNC(=O)c3cccc(C(F)(F)F)c3)n2)c1
Value: 58.6

Chemical String: O=C(NCCNc1nccc(-c2c(-c3cccc(O)c3)nc3sccn23)n1)c1ccccc1
Value: 75.9

Chemical String: O=C(NCCNc1nccc(-c2c(-c3cccc(O)c3)nc3sccn23)n1)c1ccc(N2CCOCC2)c(C(F)(F)F)c1
Value: 77.5

Chemical String: O=C(NCCNc1nccc(-c2c(-c3cccc(O)c3)nc3sccn23)n1)c1cc(C(F)(F)F)cc(C(F)(F)F)c1
Value: 103

Chemical String: O=C(NCCNc1nccc(-c2c(-c3cccc(O)c3)nc3sccn23)n1)c1ccccc1O
Value: 46.7

Chemical String: O=C(NCCNc1nccc(-c2c(-c3cccc(O)c3)nc3sccn23)n1)Nc1cccc(C(F)(F)F)c1
Value: 14.1

Chemical String: O=C(NCCNc1nccc(-c2c(-c3cccc(O)c3)nc3sccn23)n1)c1cccc(C(F)(F)F)c1
Value: 81

Chemical String: COc1cccc(-c2nc3sccn3c2-c2ccnc(NCCNC(=O)Nc3ccccc3)n2)c1
Value: 92

Chemical String: COc1cccc(-c2nc3sccn3c2-c2ccnc(NCCNC(=O)c3cc(C(F)(F)F)cc(C(F)(F)F)c3)n2)c1
Value: 79.4

Chemical String: O=C(NCCNc1nccc(-c2c(-c3cccc(O)c3)nc3sccn23)n1)Nc1ccccc1
Value: 68.8

Chemical String: O=C(NCCNc1nccc(-c2c(-c3cccc(O)c3)nc3sccn23)n1)c1cc(N2CCOCC2)cc(C(F)(F)F)c1
Value: 97.3

* * *

Test system: M14
Protocol Summary: Anticancer activity against human M14 cells assessed as cell growth at 10^-5 M after 48 hrs by SRB assay
Type: functional
Experimental Conditions: M14, 48 h, read-out: Activity
Value Type: growth at 10 µM (%)

Chemical String: COc1cccc(-c2nc3sccn3c2-c2ccnc(NCCNC(=O)c3cc(N4CCOCC4)cc(C(F)(F)F)c3)n2)c1
Value: 65.3
--
Chemical String: O=C(NCCNc1nccc(-c2c(-c3cccc(O)c3)nc3sccn23)n1)c1ccc(N2CCOCC2)c(C(F)(F)F)c1
Value: 19.1
--
Chemical String: COc1cccc(-c2nc3sccn3c2-c2ccnc(NCCNC(=O)c3cccc(C(F)(F)F)c3)n2)c1
Value: 46.5
--
Chemical String: COc1cccc(-c2nc3sccn3c2-c2ccnc(NCCNC(=O)c3ccccc3O)n2)c1
Value: 46.9

* * *

Tested on: SNB-75
Protocol Summary: Anticancer activity against human SNB75 cells assessed as cell growth at 10^-5 M after 48 hrs by SRB assay
Format: functional
Experimental Conditions: SNB-75, 48 h, read-out: Activity
Listing of recorded growth at 10 µM by entry.

Chemical String: COc1cccc(-c2nc3sccn3c2-c2ccnc(NCCNC(=O)Nc3ccccc3)n2)c1
growth at 10 µM, %: 90.8
--
Chemical String: O=C(NCCNc1nccc(-c2c(-c3cccc(O)c3)nc3sccn23)n1)Nc1cc(C(F)(F)F)cc(C(F)(F)F)c1
growth at 10 µM, %: 66.1
--
Chemical String: COc1cccc(-c2nc3sccn3c2-c2ccnc(NCCNC(=O)c3cc(N4CCOCC4)cc(C(F)(F)F)c3)n2)c1
growth at 10 µM, %: 72.2
--
Chemical String: COc1cccc(-c2nc3sccn3c2-c2ccnc(NCCNC(=O)c3cc(C(F)(F)F)cc(C(F)(F)F)c3)n2)c1
growth at 10 µM, %: 75.8

* * *

System: DU-145
Protocol Summary: Anticancer activity against human DU145 cells assessed as cell growth at 10^-5 M after 48 hrs by SRB assay
Assay type: functional
Experimental Conditions: DU-145, 48 h, read-out: Activity

Chemical String: COc1cccc(-c2nc3sccn3c2-c2ccnc(NCCNC(=O)c3cc(N4CCOCC4)cc(C(F)(F)F)c3)n2)c1
growth at 10 µM: 94.6%

Chemical String: O=C(NCCNc1nccc(-c2c(-c3cccc(O)c3)nc3sccn23)n1)c1cccc(C(F)(F)F)c1
growth at 10 µM: 91.4%

Chemical String: O=C(NCCNc1nccc(-c2c(-c3cccc(O)c3)nc3sccn23)n1)c1cc(C(F)(F)F)cc(C(F)(F)F)c1
growth at 10 µM: 114%

Chemical String: O=C(NCCNc1nccc(-c2c(-c3cccc(O)c3)nc3sccn23)n1)c1ccccc1O
growth at 10 µM: 67.2%

Chemical String: COc1cccc(-c2nc3sccn3c2-c2ccnc(NCCNC(=O)c3cc(C(F)(F)F)cc(C(F)(F)F)c3)n2)c1
growth at 10 µM: 94.4%

Chemical String: COc1cccc(-c2nc3sccn3c2-c2ccnc(NCCNC(=O)c3ccccc3O)n2)c1
growth at 10 µM: 94.5%

Chemical String: COc1cccc(-c2nc3sccn3c2-c2ccnc(NCCNC(=O)c3ccc(N4CCOCC4)c(C(F)(F)F)c3)n2)c1
growth at 10 µM: 111%

* * *

Reported growth at 10 µM values are given for each entry in this list.
System: 786-0
Protocol Summary: Anticancer activity against human 786-0 cells assessed as cell growth at 10^-5 M after 48 hrs by SRB assay
Assay type: functional
Experimental Conditions: 786-0, 48 h, read-out: Activity
Value Type: growth at 10 µM (%)

Chemical String: COc1cccc(-c2nc3sccn3c2-c2ccnc(NCCNC(=O)c3ccccc3)n2)c1
Value: 78.4
//
Chemical String: O=C(NCCNc1nccc(-c2c(-c3cccc(O)c3)nc3sccn23)n1)Nc1cc(C(F)(F)F)cc(C(F)(F)F)c1
Value: 82
//
Chemical String: O=C(NCCNc1nccc(-c2c(-c3cccc(O)c3)nc3sccn23)n1)Nc1cccc(C(F)(F)F)c1
Value: 79.4

* * *

Test system: COLO 205
Protocol Summary: Anticancer activity against human COLO205 cells assessed as cell growth at 10^-5 M after 48 hrs by SRB assay
Assay type: functional
Experimental Conditions: COLO 205, 48 h, read-out: Activity
Value Type: growth at 10 µM (%)

Chemical String: COc1cccc(-c2nc3sccn3c2-c2ccnc(NCCNC(=O)c3ccc(N4CCOCC4)c(C(F)(F)F)c3)n2)c1
Units Label: %
Value: 69
--
Chemical String: O=C(NCCNc1nccc(-c2c(-c3cccc(O)c3)nc3sccn23)n1)Nc1ccccc1
Units Label: %
Value: 69.3
--
Chemical String: O=C(NCCNc1nccc(-c2c(-c3cccc(O)c3)nc3sccn23)n1)c1ccccc1
Units Label: %
Value: 48.5
--
Chemical String: O=C(NCCNc1nccc(-c2c(-c3cccc(O)c3)nc3sccn23)n1)c1cccc(C(F)(F)F)c1
Units Label: %
Value: 71.1

* * *

Here, each record is paired with measured growth at 10 µM data.
Tested on: RPMI-8226
Protocol Summary: Anticancer activity against human RPMI8226 cells assessed as cell growth at 10^-5 M after 48 hrs by SRB assay
Format: functional
Experimental Conditions: RPMI-8226, 48 h, read-out: Activity
Value Type: growth at 10 µM

Chemical String: O=C(NCCNc1nccc(-c2c(-c3cccc(O)c3)nc3sccn23)n1)Nc1cc(C(F)(F)F)cc(C(F)(F)F)c1
Value: 45.7%

Chemical String: O=C(NCCNc1nccc(-c2c(-c3cccc(O)c3)nc3sccn23)n1)Nc1cccc(C(F)(F)F)c1
Value: -4.81%

Chemical String: COc1cccc(-c2nc3sccn3c2-c2ccnc(NCCNC(=O)Nc3cccc(C(F)(F)F)c3)n2)c1
Value: 20.4%

Chemical String: COc1cccc(-c2nc3sccn3c2-c2ccnc(NCCNC(=O)c3cc(N4CCOCC4)cc(C(F)(F)F)c3)n2)c1
Value: 39.1%

Chemical String: COc1cccc(-c2nc3sccn3c2-c2ccnc(NCCNC(=O)c3cc(C(F)(F)F)cc(C(F)(F)F)c3)n2)c1
Value: 50%
